Overview of reported hPR % inh 10 μM across a group of molecules:
# Test system: human progesterone receptor (hPR)
# PROCEDURE_DETAILS: human progesterone receptor binding assay (displacement of 3(H) R5020 Promegestone)
EXPERIMENTAL_READOUT: hPR % inh 10 μM (%)

INSERT INTO measurements (molecule, experimental_readout, value_unit, reading) VALUES
  ('O=C(Cc1ccccc1Cl)NCC(c1ccccc1)C(c1ccccc1)c1ccccc1 (stereo not shown) [Compound 2]', 'hPR % inh 10 μM', '%', '−23'),
  ('COc1ccccc1CCC(=O)NCC(c1ccc(Cl)cc1)C(c1ccccc1)c1ccccc1 (stereo not shown) [Compound 21]', 'hPR % inh 10 μM', '%', 21),
  ('O=C(Cc1ccccn1)NCC(c1ccccc1)C(c1ccccc1)c1ccccc1 (stereo not shown) [Compound 49]', 'hPR % inh 10 μM', '%', 11),
  ('O=C(NCC1(c2ccccc2)CC1(c1ccccc1)c1ccccc1)Nc1ccccc1F (stereo not shown) [Compound 93]', 'hPR % inh 10 μM', '%', 33.9);

###

EXPERIMENTAL_READOUT: melting point

INSERT INTO assay_data (molecule, experimental_readout, reading) VALUES
  ('O=C(Cc1ccccc1)NCC(c1ccccc1)C(c1ccc(F)cc1)c1ccc(F)cc1 (stereo not shown)', 'melting point', '87.5 to 89.7 °C'),
  ('COc1ccccc1CCC(=O)NCC(c1ccc(Cl)cc1)C(c1ccccc1)c1ccccc1 (stereo not shown)', 'melting point', '122.2 to 123.5 °C'),
  ('O=C(Cc1cccs1)NCC(c1cccs1)C(c1ccccc1)c1ccccc1 (stereo not shown)', 'melting point', '138.2 to 139.9 °C'),
  ('O=C(Cc1ccccc1)NCC(c1ccccc1)C(c1ccccc1)c1ccccc1 (stereo not shown)', 'melting point', '146 to 147 °C');

###

Overview of reported % Inhibition MOCH across a group of molecules:
# System: oxazolone-induced ear swelling (MOCH) in albino male CD-1 mice
# PROCEDURE_DETAILS: mouse oxazolone-induced contact hypersensitization (MOCH) ear swelling
# Assay type: in vivo
# Design: concentration or dose not given beside the values
# MEASUREMENT_CONDITIONS: mouse, in vivo
EXPERIMENTAL_READOUT: % Inhibition MOCH (%)

INSERT INTO results (molecule, experimental_target, reading) VALUES
  ('Cc1c(CC(=O)NCC(c2ccc3c(c2)OCO3)C(c2ccccc2)c2ccccc2)sc2ccc(Cl)cc12 (stereo not drawn) [Compound 100]', 'oxazolone-induced ear swelling (MOCH) in albino male CD-1 mice', 18),
  ('N#Cc1cccc(C(=O)NCC(c2ccc3c(c2)OCO3)C(c2ccccc2)c2ccccc2)c1 (stereo not drawn) [Compound 123]', 'oxazolone-induced ear swelling (MOCH) in albino male CD-1 mice', 51),
  ('COc1cc(CC(=O)NCC(c2ccc(C(F)(F)F)cc2)C(c2ccccc2)c2ccccc2)cc(OC)c1 (stereo not drawn) [Compound 149]', 'oxazolone-induced ear swelling (MOCH) in albino male CD-1 mice', 42),
  ('O=C(NCC(c1ccc(C(F)(F)F)cc1)C(c1ccccc1)c1ccccc1)c1cccs1 (stereo not drawn) [Compound 136]', 'oxazolone-induced ear swelling (MOCH) in albino male CD-1 mice', 38),
  ('O=C(NCC(c1ccc2c(c1)OCO2)C(c1ccccc1)c1ccccc1)c1ccc(F)cc1 (stereo not drawn) [Compound 128]', 'oxazolone-induced ear swelling (MOCH) in albino male CD-1 mice', 54),
  ('O=C(NCC(c1ccc2c(c1)OCO2)C(c1ccccc1)c1ccccc1)c1cc(C(F)(F)F)cc(C(F)(F)F)c1 (stereo not drawn) [Compound 120]', 'oxazolone-induced ear swelling (MOCH) in albino male CD-1 mice', 27),
  ('O=C(CSc1ccccc1)NCC(c1ccc2c(c1)OCO2)C(c1ccccc1)c1ccccc1 (stereo not drawn) [Compound 114]', 'oxazolone-induced ear swelling (MOCH) in albino male CD-1 mice', 41),
  ('O=C(Cc1ccc(F)cc1F)NCC(c1ccc2c(c1)OCO2)C(c1ccccc1)c1ccccc1 (stereo not drawn) [Compound 111]', 'oxazolone-induced ear swelling (MOCH) in albino male CD-1 mice', 60),
  ('Cc1cccc(CC(=O)NCC(c2ccc(C(F)(F)F)cc2)C(c2ccccc2)c2ccccc2)c1 (stereo not drawn) [Compound 140]', 'oxazolone-induced ear swelling (MOCH) in albino male CD-1 mice', 57),
  ('COc1cc(CC(=O)NCC(c2ccc3c(c2)OCO3)C(c2ccccc2)c2ccccc2)cc(OC)c1 (stereo not drawn) [Compound 108]', 'oxazolone-induced ear swelling (MOCH) in albino male CD-1 mice', 38),
  ('CC(C)(C)c1ccc(C(=O)NCC(c2ccc3c(c2)OCO3)C(c2ccccc2)c2ccccc2)cc1 (stereo not drawn) [Compound 125]', 'oxazolone-induced ear swelling (MOCH) in albino male CD-1 mice', 31),
  ('O=C(Cc1ccc(-c2ccccc2)cc1)NCC(c1ccc2c(c1)OCO2)C(c1ccccc1)c1ccccc1 (stereo not drawn) [Compound 134]', 'oxazolone-induced ear swelling (MOCH) in albino male CD-1 mice', 29);

###

Overview of reported hGR, value given as % across a group of molecules:
# EXPERIMENTAL_TARGET: human glucocorticoid receptor (hGR) (Homo sapiens, UniProt P04150)
# Construct: made in house; host or cells: Sf21 insect cells infected with baculovirus hGR, OR IM9 lymphoblast cell line (endogenous hGR)
# Sequence (P04150 whole entry): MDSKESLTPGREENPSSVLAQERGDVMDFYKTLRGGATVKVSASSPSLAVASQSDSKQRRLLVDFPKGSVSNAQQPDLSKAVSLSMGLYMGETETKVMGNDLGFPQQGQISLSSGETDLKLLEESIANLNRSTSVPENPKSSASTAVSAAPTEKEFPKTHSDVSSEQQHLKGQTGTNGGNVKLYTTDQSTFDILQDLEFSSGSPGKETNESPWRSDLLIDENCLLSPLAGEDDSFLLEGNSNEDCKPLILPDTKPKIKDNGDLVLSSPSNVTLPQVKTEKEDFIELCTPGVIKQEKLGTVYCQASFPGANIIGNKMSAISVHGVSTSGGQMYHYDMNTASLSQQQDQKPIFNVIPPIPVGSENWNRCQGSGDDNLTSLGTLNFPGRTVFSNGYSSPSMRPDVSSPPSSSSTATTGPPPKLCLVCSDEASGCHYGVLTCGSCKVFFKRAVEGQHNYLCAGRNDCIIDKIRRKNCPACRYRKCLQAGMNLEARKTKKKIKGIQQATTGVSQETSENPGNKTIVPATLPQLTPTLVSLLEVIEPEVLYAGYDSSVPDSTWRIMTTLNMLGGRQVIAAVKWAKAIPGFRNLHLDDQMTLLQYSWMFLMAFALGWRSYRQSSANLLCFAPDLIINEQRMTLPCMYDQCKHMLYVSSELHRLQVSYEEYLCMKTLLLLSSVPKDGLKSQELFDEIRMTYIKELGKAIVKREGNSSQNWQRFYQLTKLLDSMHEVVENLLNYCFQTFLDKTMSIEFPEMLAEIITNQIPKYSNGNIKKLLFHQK
# PROCEDURE_DETAILS: human glucocorticoid receptor binding assay (displacement of 3(H) Triamcinolone acetonide)
# MEASUREMENT_CONDITIONS: concentration not given
EXPERIMENTAL_READOUT: hGR, value given as %

INSERT INTO results (molecule, reading) VALUES
  ('O=C(Cc1ccccc1Cl)NCC(c1ccccc1)C1c2ccccc2-c2ccccc21 (centres unmarked) [Compound 68]', '46%'),
  ('COc1ccccc1CCC(=O)NCC(c1ccccc1)C1c2ccccc2-c2ccccc21 (centres unmarked) [Compound 70]', '53%'),
  ('COc1ccccc1CC(=O)NCC(c1ccccc1)C1c2ccccc2-c2ccccc21 (centres unmarked) [Compound 67]', '23%'),
  ('O=C(NCC1(c2ccccc2)CC1(c1ccccc1)c1ccccc1)Nc1ccccc1F (centres unmarked) [Compound 93]', '17%'),
  ('O=C(Cc1ccccc1C(F)(F)F)NCC(c1ccccc1)C1c2ccccc2-c2ccccc21 (centres unmarked) [Compound 69]', '15%'),
  ('Cc1ccc(C(=O)NCC(c2ccccc2)C2c3ccccc3-c3ccccc32)s1 (centres unmarked) [Compound 72]', '33%'),
  ('O=C(NCc1ccccc1)NCC1(c2ccccc2)CC1(c1ccccc1)c1ccccc1 (centres unmarked) [Compound 95]', '4%'),
  ('COc1ccccc1NC(=O)NCC1(c2ccccc2)CC1(c1ccccc1)c1ccccc1 (centres unmarked) [Compound 94]', '13%'),
  ('COc1ccccc1CC(=O)NCC(c1ccccc1)C(c1ccccc1)c1ccccc1 (centres unmarked) [Compound 5]', '62%'),
  ('CC(C)CC(=O)NCC1(c2ccccc2)CC1(c1ccccc1)c1ccccc1 (centres unmarked) [Compound 85]', '68%'),
  ('COc1ccccc1NC(=O)NCC(c1ccccc1)C(c1ccccc1)c1ccccc1 (centres unmarked) [Compound 51]', '32%');

###

Overview of reported % Inhibition MOCH across a group of molecules:
# Test system: oxazolone-induced ear swelling (MOCH) in albino male CD-1 mice
# PROCEDURE_DETAILS: mouse oxazolone-induced contact hypersensitization (MOCH) ear swelling
# Format: in vivo
# Set-up: concentration or dose not given beside the values
# MEASUREMENT_CONDITIONS: mouse, in vivo
EXPERIMENTAL_READOUT: % Inhibition MOCH

INSERT INTO measurements (molecule, experimental_readout, reading) VALUES
  ('O=C(NCC(c1ccc2c(c1)OCO2)C(c1ccccc1)c1ccccc1)c1cc2ccccc2[nH]1 (stereo not shown)', '% Inhibition MOCH', '31%'),
  ('O=C(Cc1ccccc1Cl)NCC(c1ccc(C(F)(F)F)cc1)C(c1ccccc1)c1ccccc1 (stereo not shown)', '% Inhibition MOCH', '39%'),
  ('CCCCOc1ccc(CC(=O)NCC(c2ccc3c(c2)OCO3)C(c2ccccc2)c2ccccc2)cc1 (stereo not shown)', '% Inhibition MOCH', '52%'),
  ('O=C(Cc1ccc([N+](=O)[O-])cc1)NCC(c1ccc2c(c1)OCO2)C(c1ccccc1)c1ccccc1 (stereo not shown)', '% Inhibition MOCH', '24%'),
  ('O=C(Cc1ccc(Cl)c(Cl)c1)NCC(c1ccc2c(c1)OCO2)C(c1ccccc1)c1ccccc1 (stereo not shown)', '% Inhibition MOCH', '31%'),
  ('O=C(Cc1ccccc1)NCC(c1ccc(C(F)(F)F)cc1)C(c1ccccc1)c1ccccc1 (stereo not shown)', '% Inhibition MOCH', '66%'),
  ('O=C(Cc1ccccc1)NCC(c1ccc2c(c1)OCO2)C(c1ccccc1)c1ccccc1 (stereo not shown)', '% Inhibition MOCH', '22%'),
  ('O=C(Cc1ccccn1)NCC(c1ccc2c(c1)OCO2)C(c1ccccc1)c1ccccc1 (stereo not shown)', '% Inhibition MOCH', '51%'),
  ('O=C(Cc1cc2cc(Cl)ccc2s1)NCC(c1ccc2c(c1)OCO2)C(c1ccccc1)c1ccccc1 (stereo not shown)', '% Inhibition MOCH', '26%'),
  ('O=C(NCC(c1ccc2c(c1)OCO2)C(c1ccccc1)c1ccccc1)c1ccccc1Cl (stereo not shown)', '% Inhibition MOCH', '41%'),
  ('O=C(Cc1ccc(Cl)cc1Cl)NCC(c1ccc2c(c1)OCO2)C(c1ccccc1)c1ccccc1 (stereo not shown)', '% Inhibition MOCH', '36%'),
  ('O=C(Cc1cccc(F)c1)NCC(c1ccc2c(c1)OCO2)C(c1ccccc1)c1ccccc1 (stereo not shown)', '% Inhibition MOCH', '20%'),
  ('COc1ccccc1CC(=O)NCC(c1ccc(C(F)(F)F)cc1)C(c1ccccc1)c1ccccc1 (stereo not shown)', '% Inhibition MOCH', '42%'),
  ('O=C(Cc1cc2cc(Cl)ccc2s1)NCC(c1ccc(C(F)(F)F)cc1)C(c1ccccc1)c1ccccc1 (stereo not shown)', '% Inhibition MOCH', '54%'),
  ('O=C(Cc1ccc(F)cc1F)NCC(c1ccc(C(F)(F)F)cc1)C(c1ccccc1)c1ccccc1 (stereo not shown)', '% Inhibition MOCH', '55%'),
  ('Cc1ccccc1C(=O)NCC(c1ccc2c(c1)OCO2)C(c1ccccc1)c1ccccc1 (stereo not shown)', '% Inhibition MOCH', '46%'),
  ('O=C(Cc1ccccn1)NCC(c1ccc(C(F)(F)F)cc1)C(c1ccccc1)c1ccccc1 (stereo not shown)', '% Inhibition MOCH', '39%'),
  ('COc1ccccc1C(=O)NCC(c1ccc2c(c1)OCO2)C(c1ccccc1)c1ccccc1 (stereo not shown)', '% Inhibition MOCH', '38%'),
  ('COc1cc(Cl)ccc1C(=O)NCC(c1ccc(C(F)(F)F)cc1)C(c1ccccc1)c1ccccc1 (stereo not shown)', '% Inhibition MOCH', '33%'),
  ('O=C(NCC(c1ccc2c(c1)OCO2)C(c1ccccc1)c1ccccc1)c1cccs1 (stereo not shown)', '% Inhibition MOCH', '62%'),
  ('O=C(NCC(c1ccc2c(c1)OCO2)C(c1ccccc1)c1ccccc1)c1ccsc1 (stereo not shown)', '% Inhibition MOCH', '28%'),
  ('O=C(CCc1ccccc1)NCC(c1ccc2c(c1)OCO2)C(c1ccccc1)c1ccccc1 (stereo not shown)', '% Inhibition MOCH', '35%'),
  ('O=C(NCC(c1ccc(C(F)(F)F)cc1)C(c1ccccc1)c1ccccc1)c1ccc(Cl)cc1Cl (stereo not shown)', '% Inhibition MOCH', '42%'),
  ('O=C(NCC(c1ccc(C(F)(F)F)cc1)C(c1ccccc1)c1ccccc1)c1ccccc1Cl (stereo not shown)', '% Inhibition MOCH', '45%'),
  ('COc1ccccc1CC(=O)NCC(c1ccc2c(c1)OCO2)C(c1ccccc1)c1ccccc1 (stereo not shown)', '% Inhibition MOCH', '28%'),
  ('Cc1ccc(C(=O)NCC(c2ccc3c(c2)OCO3)C(c2ccccc2)c2ccccc2)cc1 (stereo not shown)', '% Inhibition MOCH', '46%'),
  ('O=C(NCC(c1ccc2c(c1)OCO2)C(c1ccccc1)c1ccccc1)c1cc(Cl)cc(Cl)c1 (stereo not shown)', '% Inhibition MOCH', '18%'),
  ('O=C(NCC(c1ccc2c(c1)OCO2)C(c1ccccc1)c1ccccc1)c1ccc(Cl)cc1 (stereo not shown)', '% Inhibition MOCH', '37%'),
  ('O=C(NCC(c1ccc2c(c1)OCO2)C(c1ccccc1)c1ccccc1)c1ccccc1 (stereo not shown)', '% Inhibition MOCH', '28%'),
  ('O=C(Cc1cccs1)NCC(c1ccc2c(c1)OCO2)C(c1ccccc1)c1ccccc1 (stereo not shown)', '% Inhibition MOCH', '35%'),
  ('Cc1ccc(C(=O)NCC(c2ccc3c(c2)OCO3)C(c2ccccc2)c2ccccc2)cc1[N+](=O)[O-] (stereo not shown)', '% Inhibition MOCH', '33%');
